System: SETVI (Setaria viridis)
procedure-details: Postemergence herbicidal evaluation
Assay type: in vivo, (L.) Beau
particulars: rate 0.0320 kg/ha
# label = True if Postemergence herbicidal rating, SETVI < 6 else False

{"compound": "Cc1cc(C)nc(-c2nsc3ccc(-n4c(=O)cc(C(F)(F)F)n(C)c4=O)cc23)n1 [Compound 40]", "class-name": "True"}
{"compound": "Cn1c(C(F)(F)F)cc(=O)n(-c2ccc3snc(-c4ccsc4)c3c2)c1=O [Compound 1]", "class-name": "False"}
{"compound": "Cc1cc(C)c(-c2nsc3ccc(-n4c(=O)cc(C(F)(F)F)n(C)c4=O)cc23)s1 [Compound 27]", "class-name": "False"}
{"compound": "Cn1c(C(F)(F)F)cc(=O)n(-c2ccc3snc(C4OCCCO4)c3c2)c1=O [Compound 28]", "class-name": "False"}
{"compound": "CCc1cc(-c2nsc3ccc(-n4c(=O)cc(C(F)(F)F)n(C)c4=O)cc23)c(CC)s1 [Compound 8]", "class-name": "True"}
{"compound": "Cc1nnc(-c2nsc3ccc(-n4c(=O)cc(C(F)(F)F)n(C)c4=O)cc23)s1 [Compound 17]", "class-name": "True"}
{"compound": "Cn1c(C(F)(F)F)cc(=O)n(-c2ccc3snc(C4SCCS4)c3c2)c1=O [Compound 24]", "class-name": "True"}
{"compound": "Cn1c(C(F)(F)F)cc(=O)n(-c2ccc3snc(-c4ccccn4)c3c2)c1=O [Compound 9]", "class-name": "False"}
{"compound": "Cn1c(C(F)(F)F)cc(=O)n(-c2ccc3snc(C4OCCS4)c3c2)c1=O (centres unmarked) [Compound 31]", "class-name": "True"}
{"compound": "Cc1ccsc1-c1nsc2ccc(-n3c(=O)cc(C(F)(F)F)n(C)c3=O)cc12 [Compound 4]", "class-name": "True"}

###

System: ORYSAT (Rice, Tebonnet)
procedure-details: Postemergence herbicidal evaluation
Format: in vivo, Oryza sativa, (L.) Tebonnet
particulars: rate 0.0320 kg/ha
property-label: Postemergence herbicidal rating, ORYSAT

{"molecule": "CCc1cc(-c2nsc3ccc(-n4c(=O)cc(C(F)(F)F)n(C)c4=O)cc23)c(CC)s1", "tested-system": "ORYSAT (Rice, Tebonnet)", "recorded-result": 3.0}
{"molecule": "C[C@@H]1OC(c2nsc3ccc(-n4c(=O)cc(C(F)(F)F)n(C)c4=O)cc23)O[C@@H]1C (stereo partly shown)", "tested-system": "ORYSAT (Rice, Tebonnet)", "recorded-result": 4.0}
{"molecule": "Cn1c(C(F)(F)F)cc(=O)n(-c2ccc3snc(C4OCCO4)c3c2)c1=O", "tested-system": "ORYSAT (Rice, Tebonnet)", "recorded-result": 4.3}
{"molecule": "CCOc1cc(OCC)nc(-c2nsc3ccc(-n4c(=O)cc(C(F)(F)F)n(C)c4=O)cc23)n1", "tested-system": "ORYSAT (Rice, Tebonnet)", "recorded-result": 2.0}

###

Tested on: CASOB (Cassia obtusifolia)
procedure-details: Postemergence herbicidal evaluation
Assay type: in vivo, L.
particulars: postemergence, rate 0.0620 kg/ha
Description: In the tests, seedling plants are grown in jiffy flats for about two weeks. […] After spraying, the plants are placed on greenhouse benches and are cared for in accordance with conventional greenhouse procedures. From four to five weeks after treatment, the seedling plants are examined and rated according to the rating system set forth below. Where more than one test is involved for a given compound, the data are averaged. Results of herbicide evaluation are expressed on a rating scale (0-9). […]
Some molecules, each annotated with its measured CASOB herbicidal rating.

{"molecule": "CC(C)C1COC(c2nsc3ccc(-n4c(=O)cc(C(F)(F)F)n(C)c4=O)cc23)=N1 (centres unmarked)", "CASOB herbicidal rating": 1.0}
{"molecule": "C[C@@H]1C[C@H](C)OC(c2nsc3ccc(-n4c(=O)cc(C(F)(F)F)n(C)c4=O)cc23)O1 (some centres unmarked)", "CASOB herbicidal rating": 5.0}
{"molecule": "Cn1c(C(F)(F)F)cc(=O)n(-c2ccc3snc(C4OC(=O)C(C)(C)O4)c3c2)c1=O (centres unmarked)", "CASOB herbicidal rating": 2.0}
{"molecule": "Cc1cnn(-c2nsc3ccc(-n4c(=O)cc(C(F)(F)F)n(C)c4=O)cc23)c1", "CASOB herbicidal rating": 3.0}
{"molecule": "Cn1c(C(F)(F)F)cc(=O)n(-c2ccc3snc(C4(C)OCCO4)c3c2)c1=O", "CASOB herbicidal rating": 9.0}
{"molecule": "Cn1c(C(F)(F)F)cc(=O)n(-c2ccc3snc(C4OCCCS4)c3c2)c1=O (centres unmarked)", "CASOB herbicidal rating": 6.0}
{"molecule": "C[C@@H]1OC(c2nsc3cc(F)c(-n4c(=O)cc(C(F)(F)F)n(C)c4=O)cc23)O[C@@H]1C (some centres unmarked)", "CASOB herbicidal rating": 9.0}
{"molecule": "Cn1c(C(F)(F)F)cc(=O)n(-c2ccc3snc(-c4ccco4)c3c2)c1=O", "CASOB herbicidal rating": 4.0}

Source of measurements: patent US6706663B2
